Molecular target: HLA-A*6802 (human)
Assay: competition with 125I-labelled standard peptide 1072.34 for purified HLA-A*6802, gel filtration
PROPERTY: binding affinity ratio (IC50 of standard peptide / IC50 of test peptide)

RAVCGGVL (modifications not checked) [RAVCGGVL (PSA, position 43)] | -0.0001
RLSEPAKIT (modifications not checked) [… (Kallikrein, position 125)] | -0.0002
RLSEPAKI (modifications not checked) [RLSEPAKI (Kallikrein, position 125)] | -0.0001

API: the following record is the query input.
So for RAYSEKVT (modifications not checked) [RAYSEKVT (Kallikrein, position 186)] , the logged binding affinity ratio (IC50 of standard peptide / IC50 of test peptide) turned out to be -0.0001
